List of apparent KD of MS2 coat protein values.
Test system: MS2 coat protein
Experiment: apparent KD of MS2 coat protein, switch OFF state (with FMN for OFF switches, without FMN for ON switches); designed switch direction (-1 OFF switch, 1 ON switch): -1; higher = weaker reporter binding
Details: FMN input: 0 or 200 uM; Eterna round: R93 (includes R88 designs)
Form entry: enter the amount, then its unit.

The cases that follow already have their apparent KD of MS2 coat protein on record.
biosequence="AAAACGCUAGGAUAUACGAAAAAAAAGGGAGAAAAAAAGGGACAUGAGGAUCACCCAUGUAGAAGGAGCAAAAA [Diamond 88]" readout="apparent KD of MS2 coat protein" value_measured="105 nM"
biosequence="AAAAGUAGAGGAUAUACAUGAGGAUCACCCAUGUAGAAAGGAAGUGUAUAUAUGGCGUGUAGAAGGCUGCAUGA [Power strip]" readout="apparent KD of MS2 coat protein" value_measured="32.3 nM"
biosequence="CUCUUGUGAGGAUAUCCAAGAAAAGAAAAGAAAGAAAAGAAGGAGAAGGCACAUGAGGAUCACCCAUGUAAGAA [EteRNA is fun!]" readout="apparent KD of MS2 coat protein" value_measured="38.9 nM"

input: Quick one: apparent KD of MS2 coat protein for UUUACGUGAGGAUAUGCGAAUAGUACGUAAGUCUUACAGACGCAGAAGGCACAUGAGGAUCACCCAUGUGAACC [JR_Exc004_Sub310] ?
output: 55.9 nM

====

System: K4 kissing-loop RNA reporter;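 note: bound reporter read as fluorescence of individual clusters on recovered sequencing chips by microscopy, with normalized cluster intensities fitted with a binding model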
Assay: apparent KD of K4 kissing-loop reporter; higher = weaker reporter binding
Settings: Eterna round: R107; input ligand: tryptophan 2.4 mM
Tag: Yes if measured apparent KD of K4 kissing-loop reporter is not below 200 nM, No if it is.

Previously resolved entries follow.
biosequence="UCUGCUGUAUAUGAUACCAGCAGUGAGAGACCAGAAGUAUAGUGAUGUUAUAUGAGAGAAUGCCCUUGGCAGCGUGUGCGGGUGG [SSTheophylB.Z]" discrete_label=No
biosequence="GCGGCGGGCCAAGGAUAUAUAUUGGAGUGAUGUUGUUCAUUUAUUUGAGCUAGUGAUGUUGGUCAAAUAGAAGGUGGCCCGCCGC [whbob_Ex_FMNB__2th217]" discrete_label=No

input: Check this sequence for apparent KD of K4 kissing-loop reporter at or above 200 nM: GGAGUUACCUGGGAUACCAGCCGGAGGCCCAGAGCUCGGAGUGAUGUUCUGGGAUGUUUCGGCCCUUGGCAGCUCUGGGUCUCCC [#2 Exclusion - Theophylline B Attempt #6 (HarryS)]
output: Yes

input: Continue with CGUUCCUCUGUCGAUACCAGCUUCAGUUGGCGGCCAGUGAUGUUGGUAUCGCCGAUGCCAAGCCCUUGGCAGCGACAUGAGAACC [Uslaessobi]
output: No

input: Continue with UUUAUAAAGUCGGCCGCCACUGGAUUUAUAUUUGUUUAGUCUGGAUCAAAGUGAUGUUUUGAGUCCAGGACCGGGACAUUUGUUA [whbob_Ex_Tryp_B_w36]
output: No

input: Continue with AUGUCUGAUAGCAGUGAUGUUGCUUCAGAUACCAGACGAGAUCAUGUCCCUUGGCAGCUGACACGGCACGUGCUAGGUUAGAUGA [whbob_Ex_Theo_A_th71]
output: No

input: Continue with AUAGAAAAGUGGCACCCUCACUAAAACAGUCGAGGACCGGUACGGCCGCCACUCGCGCGCUUUAGUGAUGUUAAAGCUAGGCGGA
output: Yes

input: Continue with GCCGUAGAUGGAAGGAGCGUGAUAAGUGAAUUAUCCAGUGAUGUUGGAUCUUAGAUAGGAUCACAGGUAGGUCGCCAUCUACGGC
output: No

input: Continue with UGAUAGGACAGAAGGAGCGGAAGUGAUGUUUCCAAAAGGAGAGGUCGACAAAGUCGACCCUUCCAGGUAGGUCGCUGUCCUAUCU [ArgBX 10 #Palindromic #SwitchBubble #StaticStem]
output: No
